Values from FireProtDB (doi:10.1016/0022-2836(92)90560-7)

Hi there, I'd appreciate the recorded ddG of mutation (higher = less stable) for every entry that follows.
B1: Ribonuclease, P00648 (parent)
chain: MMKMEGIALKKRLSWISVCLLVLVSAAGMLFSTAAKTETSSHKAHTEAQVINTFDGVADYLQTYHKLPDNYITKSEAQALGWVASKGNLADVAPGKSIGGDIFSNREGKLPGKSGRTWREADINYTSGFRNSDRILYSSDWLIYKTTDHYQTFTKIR

- Variants of: B1
- Condition summary: Bacillus amyloliquefaciens; pH 5.8; 25 °C; Urea; Fluorescence; MES/Tris 150 mM/150 mM/; NaCl 1 M; structure 1BNI; whole UniProt chain shown
Kindly answer with a numeric value in kcal/mol, unit omitted.

Challenge: What does the data say about its ddG of mutation (higher = less stable)? Entry: W141L
Response given: 1.59

Challenge: What does the data say about its ddG of mutation (higher = less stable)? Entry: W141F
Response given: 1.06

Challenge: What does the data say about its ddG of mutation (higher = less stable)? Entry: W141Y
Response given: 1.27

Challenge: What does the data say about its ddG of mutation (higher = less stable)? Entry: H65G
Response given: 0.98
